Data provenance: patent US20210198269A1

TGT: UniProt:P11166
Sequence (P11166 whole entry): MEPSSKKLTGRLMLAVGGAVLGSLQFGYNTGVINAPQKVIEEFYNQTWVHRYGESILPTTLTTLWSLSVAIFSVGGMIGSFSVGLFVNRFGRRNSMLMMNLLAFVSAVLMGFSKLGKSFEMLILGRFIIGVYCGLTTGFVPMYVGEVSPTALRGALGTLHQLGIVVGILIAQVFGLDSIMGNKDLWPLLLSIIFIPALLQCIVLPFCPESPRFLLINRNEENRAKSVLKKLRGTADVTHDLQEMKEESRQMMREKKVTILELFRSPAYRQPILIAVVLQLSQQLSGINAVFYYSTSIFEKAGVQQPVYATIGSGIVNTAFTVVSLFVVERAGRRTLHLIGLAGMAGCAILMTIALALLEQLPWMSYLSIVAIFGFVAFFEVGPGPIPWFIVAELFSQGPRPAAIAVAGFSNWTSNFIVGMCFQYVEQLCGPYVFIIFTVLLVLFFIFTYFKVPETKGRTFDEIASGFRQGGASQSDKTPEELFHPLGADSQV
ASSAY_DETAILS: GLUT1 transporter activity assay (2-DG uptake) in DLD1 cells
EXPERIMENTAL_PARAMETERS: DLD1 cell line; read-out: GLUT1 inhibitory activity (IC50)
pIC50: −log10 of the molar value.
MEASUREMENT_NAME: pIC50

- COMPOUND: "CC12CC(NC(=O)N1c1cccc(C(=O)NCCc3ccccc3)c1)c1cccc(OCc3ccccc3)c1O2 (stereo not shown)"
  pIC50: "6.00 to 6.52"
- COMPOUND: "Cc1ccc(CCNC(=O)c2cccc(N3C(=O)NC4CC3(C)Oc3c(OCc5ccc([N+](=O)[O-])cc5)cccc34)c2)cc1 (stereo not shown)"
  pIC50: "6.00 to 6.52"
- COMPOUND: "Cc1ccc(CCNC(=O)c2cccc(N3C(=O)NC4CC3(C)Oc3c(OCc5ccncc5)cccc34)c2)cc1 (stereo not shown)"
  pIC50: "≥ 6.52"
- COMPOUND: "Cc1ccc(CCNC(=O)c2cccc(N3C(=O)NC4CC3(C)Oc3c(OCc5c(C)noc5C)cccc34)c2)cc1 (stereo not shown)"
  pIC50: "6.00 to 6.52"
- COMPOUND: "CC12CC(NC(=O)N1c1cccc(C(=O)NC3CCc4ccccc4C3)c1)c1cccc(OCc3ccccc3)c1O2 (stereo not shown)"
  pIC50: "< 4.60"
- COMPOUND: "Cc1ccc(CCNC(=O)c2cccc(N3C(=O)NC4CC3(C)Oc3c(OCc5cncnc5)cccc34)c2)cc1 (stereo not shown)"
  pIC50: "6.00 to 6.52"

stdin: Under UniProt:P11166: pIC50 value of CC12CC(NC(=O)N1c1cccc(C(=O)NC3Cc4ccccc4C3)c1)c1cccc(OCc3ccccc3)c1O2 (stereo not shown) ?
stdout: 4.60 to 5.00

stdin: Under UniProt:P11166: pIC50 value of CC12CC(NC(=O)N1c1cccc(C(=O)N3CCc4ccccc43)c1)c1cccc(OCc3ccccc3)c1O2 (stereo not shown) ?
stdout: 4.60 to 5.00

stdin: Under UniProt:P11166: pIC50 value of Cc1ccc(CCN(C)C(=O)c2cccc(N3C(=O)NC4CC3(C)Oc3c(OCc5ccccc5)cccc34)c2)cc1 (stereo not shown) ?
stdout: 6.00 to 6.52

stdin: Under UniProt:P11166: pIC50 value of CCNC(=O)c1cccc(N2C(=O)NC3CC2(C)Oc2c(OCc4ccccc4)cccc23)c1 (stereo not shown) ?
stdout: 4.60 to 5.00

stdin: Under UniProt:P11166: pIC50 value of Cc1ccc(CCNC(=O)c2cccc(N3C(=O)NC4CC3(C)Oc3c(OCc5cccnc5N)cccc34)c2)cc1 (stereo not shown) ?
stdout: 5.40 to 6.00

stdin: Under UniProt:P11166: pIC50 value of CC12CC(NC(=O)N1c1cccc(C(=O)NCCCc3ccccc3)c1)c1cccc(OCc3ccccc3)c1O2 (stereo not shown) ?
stdout: 6.00 to 6.52

stdin: Under UniProt:P11166: pIC50 value of Cc1ccc(OCCNC(=O)c2cccc(N3C(=O)NC4CC3(C)Oc3c(OCc5ccccc5)cccc34)c2)cc1 (stereo not shown) ?
stdout: 6.00 to 6.52

---

TGT: GLUT2 (Homo sapiens, UniProt P11168)
Sequence (P11168 whole entry): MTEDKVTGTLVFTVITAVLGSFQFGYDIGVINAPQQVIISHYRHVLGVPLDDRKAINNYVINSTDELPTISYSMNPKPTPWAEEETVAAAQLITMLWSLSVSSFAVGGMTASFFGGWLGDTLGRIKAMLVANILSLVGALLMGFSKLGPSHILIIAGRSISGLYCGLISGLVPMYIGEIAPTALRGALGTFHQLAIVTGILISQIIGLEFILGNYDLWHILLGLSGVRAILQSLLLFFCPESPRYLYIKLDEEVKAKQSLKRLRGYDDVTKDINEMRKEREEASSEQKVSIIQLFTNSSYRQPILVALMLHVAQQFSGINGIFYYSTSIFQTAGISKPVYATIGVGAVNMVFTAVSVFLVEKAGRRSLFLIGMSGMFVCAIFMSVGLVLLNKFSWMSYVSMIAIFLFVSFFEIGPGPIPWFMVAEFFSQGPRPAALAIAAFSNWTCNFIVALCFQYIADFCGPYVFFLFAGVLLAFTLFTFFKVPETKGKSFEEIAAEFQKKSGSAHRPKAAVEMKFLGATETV
ASSAY_DETAILS: GLUT2 transporter activity assay in CHO-hGLUT2 cells (indirect, intracellular ATP levels)
EXPERIMENTAL_PARAMETERS: CHO-hGLUT2 cell line; read-out: GLUT2 inhibitory activity (IC50)
MEASUREMENT_NAME: IC50

Past entries and their recorded results:
- MOLECULE: "Cc1ccc(CCNC(=O)c2cccc(N3C(=O)NC4CC3(C)Oc3c(OCc5c(C)noc5C)cccc34)c2)cc1 (stereo not shown) [Compound A15]"
  TGT: "GLUT2 (Homo sapiens, UniProt P11168)"
  IC50: "10 to 25 µM"
- MOLECULE: "Cc1ccc(CCN(C)C(=O)c2cccc(N3C(=O)NC4CC3(C)Oc3c(OCc5ccccc5)cccc34)c2)cc1 (stereo not shown) [Compound A23]"
  TGT: "GLUT2 (Homo sapiens, UniProt P11168)"
  IC50: "> 25 µM"
- MOLECULE: "Cc1ccc(CCNC(=O)c2cccc(N3C(=O)NC4CC3(C)Oc3c(OCc5cccnc5)cccc34)c2)cc1 (stereo not shown) [Compound A10]"
  TGT: "GLUT2 (Homo sapiens, UniProt P11168)"
  IC50: "4 to 10 µM"
- MOLECULE: "Cc1ccc(CCNC(=O)c2cccc(N3C(=O)NC4CC3(C)Oc3c(OCc5nccn5C)cccc34)c2)cc1 (stereo not shown) [Compound A16]"
  TGT: "GLUT2 (Homo sapiens, UniProt P11168)"
  IC50: "> 25 µM"
- MOLECULE: "CC12CC(NC(=O)N1c1cccc(C(=O)NCCCc3ccccc3)c1)c1cccc(OCc3ccccc3)c1O2 (stereo not shown) [Compound A33]"
  TGT: "GLUT2 (Homo sapiens, UniProt P11168)"
  IC50: "> 25 µM"
- MOLECULE: "COC(=O)c1cccc(N2C(=O)NC3CC2(C)Oc2c(OCc4ccccc4)cccc23)c1 (stereo not shown) [Compound A37]"
  TGT: "GLUT2 (Homo sapiens, UniProt P11168)"
  IC50: "> 25 µM"

# input for lookup
stdin: Under GLUT2 (Homo sapiens, UniProt P11168): IC50 value of CC12CC(NC(=O)N1c1cccc(C(=O)NCCOc3ccccc3)c1)c1cccc(OCc3ccccc3)c1O2 (stereo not shown) [Compound A21] ?
stdout: > 25 µM

---

Examples of molecules with documented IC50 follow.
TGT: UniProtKB P14672
Sequence (P14672 1-509): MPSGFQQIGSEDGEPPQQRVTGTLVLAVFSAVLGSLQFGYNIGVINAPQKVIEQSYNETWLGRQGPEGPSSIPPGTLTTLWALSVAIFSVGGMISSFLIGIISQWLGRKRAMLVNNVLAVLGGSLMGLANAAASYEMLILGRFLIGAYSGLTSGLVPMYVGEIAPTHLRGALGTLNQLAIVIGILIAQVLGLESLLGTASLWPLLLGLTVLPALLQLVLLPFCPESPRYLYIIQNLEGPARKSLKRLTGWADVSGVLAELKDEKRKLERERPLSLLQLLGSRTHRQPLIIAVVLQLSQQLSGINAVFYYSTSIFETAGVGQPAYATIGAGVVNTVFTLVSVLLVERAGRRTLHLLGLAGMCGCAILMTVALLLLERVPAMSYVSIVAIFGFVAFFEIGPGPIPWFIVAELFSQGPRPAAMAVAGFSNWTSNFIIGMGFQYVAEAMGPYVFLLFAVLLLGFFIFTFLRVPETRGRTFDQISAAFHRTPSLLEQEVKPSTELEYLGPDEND
ASSAY_DETAILS: GLUT4 transporter activity assay (2-DG uptake) in CHO-hGLUT4 cells
EXPERIMENTAL_PARAMETERS: CHO-hGLUT4 cell line; read-out: GLUT4 inhibitory activity (IC50)

Past entries and their recorded results:
- MOLECULE: "Cc1ccc(CCNC(=O)c2cccc(N3C(=O)NC4CC3(C)Oc3c(OCc5ccccc5C)cccc34)c2)cc1 (stereo not drawn)"
  MEASUREMENT: "> 25 µM"
- MOLECULE: "Cc1ccc(CCNC(=O)c2cccc(N3C(=O)NC4CC3(C)Oc3c(OCc5ccccn5)cccc34)c2)cc1 (stereo not drawn)"
  MEASUREMENT: "1 to 4 µM"
- MOLECULE: "CC12CC(NC(=O)N1c1cccc(C(=O)NCCCc3ccccc3)c1)c1cccc(OCc3ccccc3)c1O2 (stereo not drawn)"
  MEASUREMENT: "1 to 4 µM"
- MOLECULE: "Cc1ccc(CCNC(=O)c2cccc(N3C(=O)NC4CC3(C)Oc3c(OCc5cncnc5)cccc34)c2)cc1 (stereo not drawn)"
  MEASUREMENT: "> 25 µM"
- MOLECULE: "Cc1ccc(CCNC(=O)c2cccc(N3C(=O)NC4CC3(C)Oc3c(OCc5ccc(C#N)cc5)cccc34)c2)cc1 (stereo not drawn)"
  MEASUREMENT: "4 to 10 µM"
- MOLECULE: "COC(=O)c1cccc(N2C(=O)NC3CC2(C)Oc2c(OCc4ccccc4)cccc23)c1 (stereo not drawn)"
  MEASUREMENT: "10 to 25 µM"
- MOLECULE: "CC12CC(NC(=O)N1c1cccc(C(=O)NCCc3ccccc3)c1)c1cccc(OCc3ccccc3)c1O2 (stereo not drawn)"
  MEASUREMENT: "4 to 10 µM"
- MOLECULE: "Cc1ccc(CCOC(=O)c2cccc(N3C(=O)NC4CC3(C)Oc3c(OCc5ccccc5)cccc34)c2)cc1 (stereo not drawn)"
  MEASUREMENT: "> 25 µM"
- MOLECULE: "CC12CC(NC(=O)N1c1cccc(C(=O)NC3Cc4ccccc4C3)c1)c1cccc(OCc3ccccc3)c1O2 (stereo not drawn)"
  MEASUREMENT: "10 to 25 µM"
- MOLECULE: "Cc1ccc(CCNC(=O)c2cccc(N3C(=O)NC4CC3(C)Oc3c(OCc5c(C)noc5C)cccc34)c2)cc1 (stereo not drawn)"
  MEASUREMENT: "4 to 10 µM"

stdin: Any idea what IC50 was measured for Cc1ccc(CCN(C)C(=O)c2cccc(N3C(=O)NC4CC3(C)Oc3c(OCc5ccccc5)cccc34)c2)cc1 (stereo not drawn) ?
stdout: 4 to 10 µM

stdin: Any idea what IC50 was measured for Cc1ccc(CCNC(=O)c2cccc(N3C(=O)NC4CC3(C)Oc3c(OCc5cccc(Cl)c5)cccc34)c2)cc1 (stereo not drawn) ?
stdout: > 25 µM

stdin: Any idea what IC50 was measured for Cc1ccc(CCNC(=O)c2cccc(N3C(=O)NC4CC3(C)Oc3c(OCc5cccnc5)cccc34)c2)cc1 (stereo not drawn) ?
stdout: 4 to 10 µM

stdin: Any idea what IC50 was measured for CC12CC(NC(=O)N1c1cccc(C(=O)NCCOc3ccccc3)c1)c1cccc(OCc3ccccc3)c1O2 (stereo not drawn) ?
stdout: 10 to 25 µM
